tested on: Vero cells; assay: Cytotoxicity assay in Vero cells; format: cell-based; settings: Table 1, read-out: Cytotoxicity in different cells (IC50, μM) Vero
metric: log10(IC50) (log10 of the value in µM)

{"columns": ["smi", "assay.result"],
 "data": [
  ["COc1ccc(C(=O)Nc2nc(=O)n([C@H]3CC[C@@H](CO)O3)cc2F)cc1", 0.72],
  ["CCCC(=O)Nc1nc(=O)n([C@H]2CC[C@@H](CO)O2)cc1F", 0.76],
  ["Cc1ccccc1C(=O)Nc1nc(=O)n([C@H]2CC[C@@H](CO)O2)cc1F", 1.60],
  ["CCCCc1ccc(C(=O)Nc2nc(=O)n([C@H]3CC[C@@H](CO)O3)cc2F)cc1", 0.51],
  ["CC(C)(C)c1ccc(C(=O)Nc2nc(=O)n([C@H]3CC[C@@H](CO)O3)cc2F)cc1", 1.41],
  ["O=C(Nc1nc(=O)n([C@H]2CC[C@@H](CO)O2)cc1F)c1ccco1", 1.47],
  ["O=C(Nc1nc(=O)n([C@H]2CC[C@@H](CO)O2)cc1F)c1ccccc1", 0.76],
  ["O=C(Nc1nc(=O)n([C@H]2CC[C@@H](CO)O2)cc1F)c1cccnc1", 1.45]
]}

Data provenance: patent US7105527B2
